- target-under-test: Abl (T315I) (human) (Homo sapiens, UniProt P00519, T315I)
- Construct: purchased Millipore Pharma Services (contract assay, UK pharmacology laboratory)
- assay-summary: Abl-T315I kinase inhibition (in vitro)
- Type: biochemical
- run-conditions: 3 nM
parameter: inhibition at 0.003 µM (%)

Cc1ccc(C(=O)NNC(=O)c2c(C)cccc2Cl)cc1C#Cc1cnc2ccccc2n1: 0

1 = Cc1ccc(C(=O)NNC(=O)c2c(F)cccc2C(F)(F)F)cc1C#Cc1cnc2ccccc2c1
2 = Cc1ccc(C(=O)NNC(=O)c2c(C)cccc2F)cc1C#Cc1cnc2ccccc2c1
3 = Cc1ccc(C(=O)NNC(=O)c2c(C)cccc2Cl)cc1C#Cc1cnc2ccc(Cl)cc2n1
Query: Order each entry by recorded inhibition at 0.003 µM, climbing from the minimum. Give the labels in the order specified.
Reply: 2, 3, 1
(2: 1%, 3: 3%, 1: 26%)

Origin of values: patent US9024021B2
